System: SMN2 mRNA
Experiment: Splicing RT-qPCR gene panel, SMN2 canonical junction (CJ) mRNA
Format: cell-based
Conditions: Homo sapiens; Table 8; larger gene panel, decrease in CJ mRNA levels
pIC50: −log10 of the molar value.
Kindly state pIC50 for each of the entries shown.

GET /value?item= Cc1cn2nc(-c3nc4sc(C5CCNC5)cc4s3)cc(C)c2n1 (centres unmarked) &field=pIC50 returns 6.00 to 7.00

GET /value?item= Cc1cn2nc(-c3nc4sc(C5=CCOCC5)cc4s3)cc(C)c2n1 &field=pIC50 returns 6.00 to 7.00

GET /value?item= Cc1cn2cc(-n3cc4cc(C5CCNCC5)sc4n3)cc(F)c2n1 &field=pIC50 returns > 7.00

GET /value?item= Cc1nc2c(F)cc(-c3nc4sc(C5CCNCC5)cc4s3)cc2o1 &field=pIC50 returns 6.00 to 7.00

GET /value?item= Cc1cn2nc(-n3cc4sc(C5CCNCC5)cc4n3)nc2c(C)n1 &field=pIC50 returns 5.00 to 6.00

* * *

Tested on: Target C mRNA
Test: Splicing RT-qPCR gene panel, Target C canonical junction (CJ) mRNA
Format: cell-based
Conditions: Homo sapiens; Table 8; larger gene panel, decrease in CJ mRNA levels
pIC50: −log10 of the molar value.
Kindly state pIC50 for each of the entries shown.

GET /value?item= CN(c1cc2nn(-c3ccc(-c4cn[nH]c4)cc3O)cc2s1)[C@@H]1C[C@H]2CC[C@@H](C1)N2 &field=pIC50 returns < 5.00

GET /value?item= Cc1nc2c(F)cc(-c3nc4sc(C5CCNCC5)cc4s3)cc2o1 &field=pIC50 returns 6.00 to 7.00

GET /value?item= Cn1cc2cc(-c3nc4sc(N5CCNCC5)c(Cl)c4s3)cc(F)c2n1 &field=pIC50 returns 5.00 to 6.00

GET /value?item= Cn1cc2cc(-c3nc4sc(N5CCC6(CCN6)C5)cc4s3)cc(F)c2n1 (centres unmarked) &field=pIC50 returns < 5.00

GET /value?item= COc1c(-c2cc3cn(C4CCNCC4)nc3s2)cc2cn(C)nc2c1F &field=pIC50 returns 6.00 to 7.00

GET /value?item= Cc1cn2nc(-c3nc4sc(C5CNC5)cc4s3)cc(C)c2n1 &field=pIC50 returns 5.00 to 6.00

GET /value?item= CN1CCC(n2cc3cc(-c4cc(F)c5nn(C)cc5c4)sc3n2)CC1 &field=pIC50 returns 6.00 to 7.00

GET /value?item= Cn1cc2c(F)cc(-n3cc4cc(C5CCNCC5)sc4n3)cc2n1 &field=pIC50 returns < 5.00

GET /value?item= Cc1cn2cc(-n3cc4sc(C5CCNCC5)cc4n3)cc(Cl)c2n1 &field=pIC50 returns 5.00 to 6.00

GET /value?item= Cn1cc2cc(N3Cc4sc(C5CCNCC5)cc4C3=O)cc(F)c2n1 &field=pIC50 returns 6.00 to 7.00

GET /value?item= CCNC1CCN(c2cc3sc(-c4cc(F)c5nn(C)cc5c4)nc3s2)CC1 &field=pIC50 returns 6.00 to 7.00

GET /value?item= Cc1cn2nc(-c3cc4cn([C@H]5CCNC[C@@H]5F)nc4s3)cc(C)c2n1 (mixture of isomers) &field=pIC50 returns < 5.00

GET /value?item= Cn1cc2cc(-c3nc4sc(N5CCC(NC(C)(C)C)C5)cc4s3)cc(F)c2n1 (centres unmarked) &field=pIC50 returns 5.00 to 6.00

GET /value?item= COc1c(-c2cc3cn(C4CCNCC4)nc3s2)cc(F)c2nn(C)cc12 &field=pIC50 returns < 5.00

GET /value?item= Cc1cn2cc(-c3cc4cn(C5CCNCC5)nc4s3)cc(C)c2n1 &field=pIC50 returns 6.00 to 7.00

GET /value?item= Cc1cc(N2Cc3sc(C4CCNCC4)cc3C2=O)cc2cn(C)nc12 &field=pIC50 returns 6.00 to 7.00

GET /value?item= Cn1cc2cc(-c3cc4cn(C5CCNCC5)nc4s3)c(C#N)cc2n1 &field=pIC50 returns 5.00 to 6.00

GET /value?item= Cn1cc2cc(-c3cc4cn(C5CNC5)nc4s3)cc(F)c2n1 &field=pIC50 returns < 5.00

GET /value?item= Cn1cc2cc(N3Cc4cc(C5CCNCC5)sc4C3=O)cc(F)c2n1 &field=pIC50 returns 5.00 to 6.00

GET /value?item= Cn1cc2cc(-c3cc4cn(C5CCNCC5)nc4s3)ncc2n1 &field=pIC50 returns 5.00 to 6.00

GET /value?item= Cc1cn2cc(-n3cc4sc(C5CCNCC5)cc4n3)cc(F)c2n1 &field=pIC50 returns 5.00 to 6.00

GET /value?item= CN1CCCC2(CCN2c2cc3sc(-c4cc(F)c5nn(C)cc5c4)nc3s2)C1 (centres unmarked) &field=pIC50 returns < 5.00

GET /value?item= Cn1cc2cc(-c3nc4cn(C5CCNCC5)nc4s3)c(O)c(F)c2n1 &field=pIC50 returns 6.00 to 7.00

GET /value?item= Cc1nc2c(F)cc(-n3cc4sc(C5CCNCC5)cc4n3)cc2o1 &field=pIC50 returns 5.00 to 6.00

GET /value?item= Cn1cc2cc(-c3cc4cn([C@H]5CCNC[C@@H]5F)nc4s3)cc(F)c2n1 &field=pIC50 returns 6.00 to 7.00

GET /value?item= Cc1cn2nc(-c3nc4sc(C5CCNCC5)cc4s3)cc(C)c2n1 &field=pIC50 returns > 7.00

GET /value?item= Cc1nc2c(F)cc(-c3nc4sc(C5CCNCC5)cc4s3)cc2s1 &field=pIC50 returns 5.00 to 6.00

GET /value?item= COc1c(-c2nc3sc(C4CCNCC4)cc3s2)cc(F)c2nn(C)cc12 &field=pIC50 returns < 5.00

GET /value?item= Cn1cc2cc(-n3cc4cc(C5CCNCC5)sc4n3)c(O)cc2n1 &field=pIC50 returns 5.00 to 6.00

GET /value?item= Cn1cc2cc(-c3nc4sc([C@H]5CCNC[C@H]5F)cc4s3)cc(F)c2n1 &field=pIC50 returns < 5.00

GET /value?item= Cn1cc2cc(-c3cn4nc(C5CCNCC5)nc4s3)cc(F)c2n1 &field=pIC50 returns 6.00 to 7.00

GET /value?item= Cc1cc(-c2nc3sc(C4CCNCC4)cc3s2)cc2cn(C)nc12 &field=pIC50 returns 6.00 to 7.00

GET /value?item= Cn1cc2cc(-c3nc4sc(N5CCNC(C)(C)C5)cc4s3)cc(F)c2n1 &field=pIC50 returns 5.00 to 6.00

GET /value?item= Cc1cn2nc(-n3cc4sc(C5CCNCC5)cc4n3)nc2c(C)n1 &field=pIC50 returns 5.00 to 6.00

GET /value?item= Cn1cc2cc(-c3nc4sc(C5CCNCC5)cc4s3)cc(F)c2n1 &field=pIC50 returns > 7.00
